# SYSTEM_UNDER_TEST: human 5-HT1D receptor (Homo sapiens)
# Sequence (P28221 whole entry): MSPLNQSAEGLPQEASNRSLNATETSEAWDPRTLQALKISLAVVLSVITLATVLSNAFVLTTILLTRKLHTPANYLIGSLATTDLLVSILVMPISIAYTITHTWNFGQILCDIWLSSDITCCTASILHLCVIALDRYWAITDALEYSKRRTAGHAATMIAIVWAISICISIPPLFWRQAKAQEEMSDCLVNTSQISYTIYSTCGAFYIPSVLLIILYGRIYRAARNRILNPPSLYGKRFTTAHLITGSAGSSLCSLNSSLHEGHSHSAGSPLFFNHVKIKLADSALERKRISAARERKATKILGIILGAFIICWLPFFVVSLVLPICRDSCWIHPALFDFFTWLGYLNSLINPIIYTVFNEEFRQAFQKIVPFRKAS

{"columns": ["MOLECULE", "Ki / nM"],
 "data": [
  ["O[C@H](COc1ccc2ccccc2c1)CN1CCC(O)(c2cnc3ccccc3c2)CC1 [Compound 3]", 1530]
]}

====

# SYSTEM_UNDER_TEST: human 5-HT2B receptor (Homo sapiens)
# Construct: expressed in transfected cells
# Sequence (P41595 whole entry): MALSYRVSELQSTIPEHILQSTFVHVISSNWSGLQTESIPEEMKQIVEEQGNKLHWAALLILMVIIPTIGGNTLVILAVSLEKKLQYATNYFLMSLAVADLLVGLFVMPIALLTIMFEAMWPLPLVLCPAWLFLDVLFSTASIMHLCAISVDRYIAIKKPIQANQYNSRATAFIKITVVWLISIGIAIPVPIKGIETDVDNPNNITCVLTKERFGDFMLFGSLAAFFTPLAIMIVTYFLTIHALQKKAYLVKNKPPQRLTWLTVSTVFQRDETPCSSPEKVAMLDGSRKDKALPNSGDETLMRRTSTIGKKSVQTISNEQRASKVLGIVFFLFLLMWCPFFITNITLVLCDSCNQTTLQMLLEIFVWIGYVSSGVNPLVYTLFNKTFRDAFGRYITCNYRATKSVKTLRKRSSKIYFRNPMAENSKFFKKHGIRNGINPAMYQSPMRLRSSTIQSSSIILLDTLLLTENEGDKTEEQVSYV
# PROCEDURE_SUMMARY: Radioligand binding, human 5-HT2B receptor
# DETAILS: human 5-HT2B; read-out: Affinity at 5-HT2B (Ki ± SEM)
OBSERVATION_TYPE: Ki

{"columns": ["MOLECULE", "EXPERIMENTAL_RESULT"],
 "data": [
  ["CN(C)C1CCc2oc3ccc(NC(=O)c4ccncc4)cc3c2C1 (stereo not shown)", "4.2 µM"]
]}

====

# SYSTEM_UNDER_TEST: human 5-HT2C receptor (Homo sapiens)
# Construct: expressed in transfected cells
# Sequence (P28335 33-458): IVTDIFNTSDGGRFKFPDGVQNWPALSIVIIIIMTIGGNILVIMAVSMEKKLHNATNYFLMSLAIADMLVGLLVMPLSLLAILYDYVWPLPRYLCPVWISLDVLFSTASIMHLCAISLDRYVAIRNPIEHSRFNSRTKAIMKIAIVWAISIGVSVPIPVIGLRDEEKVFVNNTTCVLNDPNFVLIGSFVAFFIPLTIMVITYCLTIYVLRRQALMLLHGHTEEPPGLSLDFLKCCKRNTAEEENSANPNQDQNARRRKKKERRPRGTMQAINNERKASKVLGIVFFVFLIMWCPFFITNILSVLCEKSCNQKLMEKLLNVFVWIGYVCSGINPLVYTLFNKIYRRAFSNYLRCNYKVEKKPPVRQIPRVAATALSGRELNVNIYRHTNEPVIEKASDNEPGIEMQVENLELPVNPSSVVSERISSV
# PROCEDURE_SUMMARY: Radioligand binding, human 5-HT2C receptor
pKi: −log10 of the molar value.
OBSERVATION_TYPE: pKi

{"columns": ["SMILES_STR", "EXPERIMENTAL_RESULT"],
 "data": [
  ["O[C@H](COc1ccc2ccccc2c1)CN1CCC(O)(c2cnc3ccccc3c2)CC1", 5.86]
]}

====

# SYSTEM_UNDER_TEST: human 5-HT1F receptor (Homo sapiens, UniProt P30939)
# Sequence (P30939 whole entry): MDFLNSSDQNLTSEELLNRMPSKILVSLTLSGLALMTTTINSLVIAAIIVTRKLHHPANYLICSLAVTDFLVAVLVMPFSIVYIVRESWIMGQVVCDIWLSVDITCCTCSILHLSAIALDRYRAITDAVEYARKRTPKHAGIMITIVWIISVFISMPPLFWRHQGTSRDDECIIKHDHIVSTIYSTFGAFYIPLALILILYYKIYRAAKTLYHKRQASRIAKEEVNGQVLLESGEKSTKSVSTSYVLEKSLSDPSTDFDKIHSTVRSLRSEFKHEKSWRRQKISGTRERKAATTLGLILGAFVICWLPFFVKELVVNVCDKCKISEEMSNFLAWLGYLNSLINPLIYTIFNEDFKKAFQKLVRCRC

{"columns": ["COMPOUND", "SYSTEM_UNDER_TEST", "Ki (nM)"],
 "data": [
  ["O[C@H](COc1ccc2ccccc2c1)CN1CCC(O)(c2cnc3ccccc3c2)CC1 [Compound 3]", "human 5-HT1F receptor (Homo sapiens, UniProt P30939)", 4.31],
  ["CN(C)[C@@H]1CCc2c([nH]c3ccc(NC(=O)c4ccc(F)cc4)cc23)C1 [Compound 2]", "human 5-HT1F receptor (Homo sapiens, UniProt P30939)", 3.47]
]}

====

# SYSTEM_UNDER_TEST: human 5-HT2A receptor (Homo sapiens, UniProt P28223)
# Construct: expressed in transfected cells; host or cells: COS-7 (transient, pCEXV-3 vector)
# Sequence (P28223 whole entry): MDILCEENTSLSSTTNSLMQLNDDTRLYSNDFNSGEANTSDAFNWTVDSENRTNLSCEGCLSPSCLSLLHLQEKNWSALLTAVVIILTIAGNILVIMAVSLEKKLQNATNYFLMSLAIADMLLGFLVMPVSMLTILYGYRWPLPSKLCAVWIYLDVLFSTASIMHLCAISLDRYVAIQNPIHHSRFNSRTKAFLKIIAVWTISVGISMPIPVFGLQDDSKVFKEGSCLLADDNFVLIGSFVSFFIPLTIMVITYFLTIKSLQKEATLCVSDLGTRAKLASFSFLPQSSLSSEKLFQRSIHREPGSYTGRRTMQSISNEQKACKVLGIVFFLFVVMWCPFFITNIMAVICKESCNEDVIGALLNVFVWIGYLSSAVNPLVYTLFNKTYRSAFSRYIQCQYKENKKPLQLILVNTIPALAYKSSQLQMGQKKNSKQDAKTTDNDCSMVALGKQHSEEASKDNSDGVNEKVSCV
# PROCEDURE_SUMMARY: Radioligand competition binding, human 5-HT2A receptor ([3H] ketanserin)
OBSERVATION_TYPE: Ki (nM)

{"columns": ["SMILES_STR", "SYSTEM_UNDER_TEST", "EXPERIMENTAL_RESULT"],
 "data": [
  ["O[C@H](COc1ccc2ccccc2c1)CN1CCC(O)(c2cnc3ccccc3c2)CC1", "human 5-HT2A receptor (Homo sapiens, UniProt P28223)", 377]
]}
